These measurements were taken from ChEMBL document CHEMBL4616697.

Assay: Inhibition of glycoprotein in VSV pseudotyped Ebolavirus infected in African green monkey Vero cells assessed as reduction in virus entry incubated for 24 hrs by luciferase reporter gene assay
Format: cell-based
Settings: Orthoebolavirus, Vero, 24 h
pEC50: −log10 of the molar value.

# SAMPLE SMILES, pEC50
rows = [
    ("O=C(NC1CCNCC1)NC12CC3CC(C1)CC(c1ccccc1)(C3)C2", "< 6.00"),
    ("O=C(NC1CCNCC1)C12CC3CC(C1)CC(c1ccc([N+](=O)[O-])cc1)(C3)C2", "< 5.52"),
    ("O=C(NC12CC3CC(C1)CC(c1ccccc1)(C3)C2)C1CCNCC1", "< 6.00"),
]
